Ref: ChEMBL document CHEMBL5036347

test: Water solubility of compound at pH 7.4 at 0.1 to 10 mg by HPLC-UV analysis; assay type: physicochemical; settings: dose 0.1-10 mg
Decide by solubility: equal to or exceeding 2 µg/mL means MET, less means NOT MET.

CCNc1cc(Oc2c(OC)cc3cc(C#N)ccc3c2OC)nc(Nc2ccc(C#N)cc2)n1.O=C(O)C(O)C(O)C(=O)O    MET
CCNc1cc(Oc2c(OC)cc3cc(C#N)ccc3c2OC)nc(Nc2ccc(C#N)cc2)n1.CS(=O)(=O)O    NOT MET
Br.COc1cc2cc(C#N)ccc2c(OC)c1Oc1cc(N)nc(Nc2ccc(C#N)cc2)n1    NOT MET

Dear colleague, could you confirm whether "CC(=O)O.COc1cc2cc(C#N)ccc2c(OC)c1Oc1cc(N)nc(Nc2ccc(C#N)cc2)n1" has solubility at or above 2 µg/mL?
NOT MET

Another: CC(=O)O.COc1cc2cc(C#N)ccc2c(OC)c1Oc1cc(N2CCC(O)C2)nc(Nc2ccc(C#N)cc2)n1 (configuration not stated)
MET

Another: "Br.CCNc1cc(Oc2c(OC)cc3cc(C#N)ccc3c2OC)nc(Nc2ccc(C#N)cc2)n1"
NOT MET

Another: COc1cc2cc(C#N)ccc2c(OC)c1Oc1cc(N2CCC(O)C2)nc(Nc2ccc(C#N)cc2)n1.O=C(O)CC(O)(CC(=O)O)C(=O)O (configuration not stated)
NOT MET

---

assay: Water solubility of compound at pH 7.4 at 0.1 to 10 mg by HPLC-UV analysis; type: physicochemical; details: dose 0.1-10 mg
Decide by solubility: equal to or exceeding 2 µg/mL means Fulfilled, less means Not fulfilled.

These solved cases illustrate the format of a correct answer.
COc1cc2cc(C#N)ccc2c(OC)c1Oc1cc(N)nc(Nc2ccc(C#N)cc2)n1    Not fulfilled
COc1cc2cc(C#N)ccc2c(OC)c1Oc1cc(N2CCC(O)C2)nc(Nc2ccc(C#N)cc2)n1.O=CO (stereo not drawn)    Fulfilled
COc1cc2cc(C#N)ccc2c(OC)c1Oc1cc(N)nc(Nc2ccc(C#N)cc2)n1.O=C(O)/C=C\C(=O)O    Fulfilled
CCNc1cc(Oc2c(OC)cc3cc(C#N)ccc3c2OC)nc(Nc2ccc(C#N)cc2)n1.O=C(O)CC(O)(CC(=O)O)C(=O)O    Not fulfilled

Dear colleague, could you confirm whether "CCNc1cc(Oc2c(OC)cc3cc(C#N)ccc3c2OC)nc(Nc2ccc(C#N)cc2)n1.Cc1ccc(S(=O)(=O)O)cc1" has solubility at or above 2 µg/mL?
Fulfilled

Another: "CCNc1cc(Oc2c(OC)cc3cc(C#N)ccc3c2OC)nc(Nc2ccc(C#N)cc2)n1.I"
Not fulfilled

Another: "CCNc1cc(Oc2c(OC)cc3cc(C#N)ccc3c2OC)nc(Nc2ccc(C#N)cc2)n1.O=S(=O)(O)O"
Fulfilled

---

Reported values of pIC50 for individual entries
molecular target: Human immunodeficiency virus type 1 reverse transcriptase (Human immunodeficiency virus 1, UniProt Q72547)
pIC50 is a log-scale quantity: -log10 of the concentration expressed in molar.

Some compounds with recorded pIC50:
COc1cc2cc(C#N)ccc2c(OC)c1Oc1cc(N2CCC(O)C2)nc(Nc2ccc(C#N)cc2)n1 (stereo unspecified)    7.00
COc1cc2cc(C#N)ccc2c(OC)c1Oc1cc(NC2CCCC2)nc(Nc2ccc(C#N)cc2)n1    6.68
COc1cc2cc(C#N)ccc2c(OC)c1Oc1cc(NC2CCCCC2)nc(Nc2ccc(C#N)cc2)n1    6.36
CCCCNc1cc(Oc2c(OC)cc3cc(C#N)ccc3c2OC)nc(Nc2ccc(C#N)cc2)n1    6.77
COc1cc2cc(C#N)ccc2c(OC)c1Oc1cc(NC(C)C)nc(Nc2ccc(C#N)cc2)n1    6.85

API: the following record is the query input.
May I ask what pIC50 has been recorded for CCC(C)Nc1cc(Oc2c(OC)cc3cc(C#N)ccc3c2OC)nc(Nc2ccc(C#N)cc2)n1 (stereo unspecified) ?
6.59

---

test system: Human immunodeficiency virus 1; assay: Antiviral activity against HIV1 harboring reverse transcriptase E138K mutant infected in human MT4 cells assessed as protection against virus-induced cytopathic effect incubated for 5 days by MTT assay; type: functional, organism-based; settings: Human immunodeficiency virus 1, MT4, 120 h
reported.metric: IC50 (nM)
# output: bare number, implied unit nM

May I ask what IC50 has been recorded for "COc1cc2cc(C#N)ccc2c(OC)c1Oc1cc(NCC(F)(F)F)nc(Nc2ccc(C#N)cc2)n1" ?
73

---

Reported values of solubility for individual entries
experiment: Water solubility of compound at pH 2 at 0.1 to 10 mg by HPLC-UV analysis; assay type: physicochemical; details: dose 0.1-10 mg
# output: bare number, implied unit µg/mL

Br.CCNc1cc(Oc2c(OC)cc3cc(C#N)ccc3c2OC)nc(Nc2ccc(C#N)cc2)n1    1

API: the following record is the query input.
May I ask what solubility has been recorded for "COc1cc2cc(C#N)ccc2c(OC)c1Oc1cc(N)nc(Nc2ccc(C#N)cc2)n1.Cl" ?
6

---

system: Human immunodeficiency virus 1; assay: Antiviral activity against HIV1 harboring reverse transcriptase L100I mutant infected in human MT4 cells assessed as protection against virus-induced cytopathic effect incubated for 5 days by MTT assay; type: functional, organism-based; conditions: Human immunodeficiency virus 1, MT4, 120 h
reported.metric: EC50 (nM)
# output: bare number, implied unit nM

Some molecules with recorded EC50:
CCC(CC)Nc1cc(Oc2c(OC)cc3cc(C#N)ccc3c2OC)nc(Nc2ccc(C#N)cc2)n1    5870
COc1cc2cc(C#N)ccc2c(OC)c1Oc1cc(NCCCOC(C)C)nc(Nc2ccc(C#N)cc2)n1    1230

Write down the reported EC50 of "CCCCNc1cc(Oc2c(OC)cc3cc(C#N)ccc3c2OC)nc(Nc2ccc(C#N)cc2)n1" , test system: Human immunodeficiency virus 1.
630

Another: CCCCCC(C)Nc1cc(Oc2c(OC)cc3cc(C#N)ccc3c2OC)nc(Nc2ccc(C#N)cc2)n1 (centres undefined)
157000

Another: CCC(C)CNc1cc(Oc2c(OC)cc3cc(C#N)ccc3c2OC)nc(Nc2ccc(C#N)cc2)n1 (centres undefined)
2480

---

Reported values of EC50 for individual entries
test system: Human immunodeficiency virus 1; experiment: Antiviral activity against HIV1 harboring reverse transcriptase L100I mutant infected in human MT4 cells assessed as protection against virus-induced cytopathic effect incubated for 5 days by MTT assay; assay type: functional, organism-based; details: Human immunodeficiency virus 1, MT4, 120 h
# output: bare number, implied unit nM

CCC(C)Nc1cc(Oc2c(OC)cc3cc(C#N)ccc3c2OC)nc(Nc2ccc(C#N)cc2)n1 (stereo not drawn)    1380
COc1cc2cc(C#N)ccc2c(OC)c1Oc1cc(NCC(O)CO)nc(Nc2ccc(C#N)cc2)n1 (stereo not drawn)    1040
CCCC(C)Nc1cc(Oc2c(OC)cc3cc(C#N)ccc3c2OC)nc(Nc2ccc(C#N)cc2)n1 (stereo not drawn)    2170
COc1cc2cc(C#N)ccc2c(OC)c1Oc1cc(N2CCC(O)C2)nc(Nc2ccc(C#N)cc2)n1 (stereo not drawn)    120

May I ask what EC50 has been recorded for "COc1cc2cc(C#N)ccc2c(OC)c1Oc1cc(NC2CCOCC2)nc(Nc2ccc(C#N)cc2)n1" ?
1510

Another: "CCCC(CCC)Nc1cc(Oc2c(OC)cc3cc(C#N)ccc3c2OC)nc(Nc2ccc(C#N)cc2)n1"
128000

Another: "Cc1cc(C#N)cc(C)c1Oc1nc(Nc2ccc(C#N)cc2)nc(N)c1Br"
14

Another: "COc1cc2cc(C#N)ccc2c(OC)c1Oc1cc(NCCC2=CCCCC2)nc(Nc2ccc(C#N)cc2)n1"
16600

---

test system: MT4; experiment: Cytotoxicity against human MT4 cells assessed as reduction in cell viability incubated for 5 days by MTT assay; format: cell-based; conditions: Homo sapiens, MT4, 120 h
pIC50: −log10 of the molar value.
reported.metric: pIC50

May I ask what pIC50 has been recorded for CCC(C)CNc1cc(Oc2c(OC)cc3cc(C#N)ccc3c2OC)nc(Nc2ccc(C#N)cc2)n1 (stereo unspecified) ?
< 3.90

---

tested on: Human immunodeficiency virus 1; assay: Antiviral activity against HIV1 harboring reverse transcriptase Y181C mutant infected in human MT4 cells assessed as protection against virus-induced cytopathic effect incubated for 5 days by MTT assay; assay type: functional, organism-based; conditions: Human immunodeficiency virus 1, MT4, 120 h
reported.metric: IC50
Record the result as number plus unit.

May I ask what IC50 has been recorded for "COc1cc2cc(C#N)ccc2c(OC)c1Oc1cc(NCC2CC2)nc(Nc2ccc(C#N)cc2)n1" ?
210 nM

---

assay: Resistance fold, ratio of EC50 for HIV1 harboring reverse transcriptase Y181C mutant […] to EC50 for wild type HIV1 […]; assay type: functional
Ratio EC50 strictly under 10 means y; at 10 or over means n.

These solved cases illustrate the format of a correct answer.
COc1cc2cc(C#N)ccc2c(OC)c1Oc1cc(NCCC2=CCCCC2)nc(Nc2ccc(C#N)cc2)n1    n
CCCCCC(C)Nc1cc(Oc2c(OC)cc3cc(C#N)ccc3c2OC)nc(Nc2ccc(C#N)cc2)n1 (stereo not given)    n

Please determine if "COc1cc2cc(C#N)ccc2c(OC)c1Oc1cc(N2CCOCC2)nc(Nc2ccc(C#N)cc2)n1" is below 10 in terms of Ratio EC50.
y

Another: "CNc1cc(Oc2c(OC)cc3cc(C#N)ccc3c2OC)nc(Nc2ccc(C#N)cc2)n1"
y

Another: "COc1cc2cc(C#N)ccc2c(OC)c1Oc1cc(NCCCCO)nc(Nc2ccc(C#N)cc2)n1"
n
